The reported measurements were obtained from patent US6914045B2.

Examples of compounds with documented MIC Streptococcus pneumoniae (GC 4565) follow.
# Tested on: Streptococcus sp.
# test_description: in vitro antibacterial evaluation, MIC by broth dilution
# Assay type: cell-based
# settings: broth dilution, 18 hours at 35° C.; strain GC 4565
metric: MIC Streptococcus pneumoniae (GC 4565) (µg/mL)

compound	system_under_test	result_comparator	result
N=C1NCC(C(O)C2NC(=O)C(Cc3ccc(OC4OC(CO)C(OC5OC(CO)C(O)C6OC7(OC56)C5CC6CC(C5)CC7C6)C(O)C4O)cc3)NC(=O)C(CC3CCCCC3)NC(=O)CNC(=O)C(CO)NC(=O)C(C(O)C3CNC(=N)N3C3OC(CO)C(O)C(O)C3O)NC2=O)N1 (stereo not shown) [Example 106a]	Streptococcus sp.	<	0.06
CCCC(CCC)C(=O)OCC1OC(OC2C(CO)OC(Oc3ccc(CC4NC(=O)C(C(C)c5ccccc5)NC(=O)CNC(=O)C(CO)NC(=O)C(C(O)C5CNC(=N)N5C5OC(CO)C(O)C(O)C5O)NC(=O)C(C(O)C5CNC(=N)N5)NC4=O)cc3)C(O)C2O)C(O)C(O)C1O (stereo not shown) [Example 99c]	Streptococcus sp.	<	0.5
CC(c1ccccc1)C1NC(=O)CNC(=O)C(CO)NC(=O)C(C(O)C2CN(c3ncccn3)C(=N)N2C2OC(CO)C(O)C(O)C2O)NC(=O)C(C(O)C2CNC(=Nc3ncccn3)N2)NC(=O)C(Cc2ccc(OC3OC(CO)C(OC4OC(CO)C(O)C(O)C4O)C(O)C3O)cc2)NC1=O (stereo not shown)	Streptococcus sp.	=	128
CC(C)CC(=O)OCC1OC(OC2C(CO)OC(Oc3ccc(CC4NC(=O)C(Cc5ccccc5)NC(=O)CNC(=O)C(CO)NC(=O)C(C(O)C5CNC(=N)N5C5OC(CO)C(O)C(O)C5O)NC(=O)C(C(O)C5CNC(=N)N5)NC4=O)cc3)C(O)C2O)C(O)C(O)C1O (stereo not shown) [Example 283c]	Streptococcus sp.	=	8
